system: OVCAR-5; assay: NCI tumour cell line growth inhibition, 48 h
Where a name gives a salt, the structure may show the parent alone. The source made the active and inactive calls. Rule as the data show it: active = GI50 up to about 1.1 µM and inactive = higher.
Result Type: GI50

{"columns": ["Compound", "Observed Result"],
 "data": [
  ["O=C1CC(c2ccc(Cl)cc2)=Nc2ccccc2N1", "> 100 µM (inactive)"],
  ["N/C(COc1ccc(Cl)cc1)=N\\NC(=O)c1ccncc1", "> 100 µM (inactive)"],
  ["Nc1ccc(Oc2ccc(C34CC5CC(C3)CC(c3ccc(Oc6ccc(N)c(O)c6)cc3)(C5)C4)cc2)cc1O", "2.05 µM (inactive)"],
  ["CCOC(=O)C(C)(C)Oc1ccc2c(=O)cc(-c3ccccc3)oc2c1", "> 100 µM (inactive)"],
  ["C[N+](C)(CCCCCC[N+](C)(C)CCCN1C(=O)c2cccc3cccc(c23)C1=O)CCCN1C(=O)c2cccc3cccc(c23)C1=O", "> 100 µM (inactive)"],
  ["COCc1nc2c(OC)c(-c3nc4ccc(N5CCN(C)CC5)nc4[nH]3)cc(OC)c2[nH]1", "40.4 µM (inactive)"],
  ["Nc1ncnc2c1cnn2Cc1cn(COCC(O)CO)nn1 (stereo unspecified)", "> 100 µM (inactive)"],
  ["CC1CCc2sc3nc(S)n(-c4ccccc4)c(=O)c3c2C1 (stereo unspecified)", "86.9 µM (inactive)"],
  ["O=C(O)CSc1nnc(COc2ccccc2)n1-c1ccccc1", "> 100 µM (inactive)"],
  ["Cc1nn(C(=O)c2ccccc2O)c2c1C(c1ccco1)SC(=N)N2 (stereo unspecified)", "> 10 µM (inactive)"],
  ["O=C1C2=C(CCC2)Nc2cccc3ncn1c23", "15.9 µM (inactive)"],
  ["CN(C)CCCNC(=O)c1cc(NS(=O)(=O)c2ccc3c(c2)C(=O)c2ccccc2C3=O)cn1C", "35.6 µM (inactive)"],
  ["O=C1SC(SCc2ccccc2)=NC12CC2c1ccccc1 (stereo unspecified)", "18.5 µM (inactive)"],
  ["Cc1ncn(-c2ccccc2O)c1C", "> 100 µM (inactive)"],
  ["c1ccc([C@H]2CN3CCSC3=N2)cc1 [LEVAMISOLE HYDROCHLORIDE]", "> 100 µM (inactive)"],
  ["CN(C)/C=C1\\CCc2ccc([N+](=O)[O-])cc2C1=O", "> 100 µM (inactive)"],
  ["CCN(CC)CCN1C(=O)c2cccc3cc(N)cc(c23)C1=O", "3.06 µM (inactive)"],
  ["N[C@@H](CCC(=O)NC(Cc1ccccc1)C(=O)NCP(=O)(O)O)C(=O)O (stereo partly specified)", "> 100 µM (inactive)"],
  ["Cc1cc(C)[n+](CCOc2ccc(/C(=C(/Cl)c3ccccc3)c3ccccc3)cc2)c(C)c1.[O-][Cl+3]([O-])([O-])[O-]", "2.69 µM (inactive)"],
  ["CC(=O)Oc1c(N2CCCCC2)c(C(=O)c2ccccc2)c(O)c2ccn(N(C)C)c12", "25.5 µM (inactive)"],
  ["CC1(C)CC(=O)C(=[N+]=[N-])C(=O)C1", "> 100 µM (inactive)"]
]}
